- run.description: wild-type TIM10 yeast growth inhibition – luminescence, uHTS, counter-screen for tim10-1 yeast inhibitor project, primary screen (AID 463195);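 also: wild-type TIM10 isogenic control strain grown at permissive 25 °C; 0% = DMSO yeast wells and 100% = minimal medium wells without yeast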
- condition.description: S. cerevisiae TIM10 strain growth, BacTiter-Glo luminescence, 24 h; at 10 µM
In all, about 330,000 compounds went through this assay and about 4,600 (1.4%) were called active.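 The calls were made as follows: active = inhibition of 40% or more at the single tested concentration; inactive = the rest.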 For the sample, actives were picked, then their nearest neighbours and some compounds at random.
A correct response names exactly one class from Y for active, N for inactive

INPUT: Recorded call for N=c1n(Cc2ccc(Cl)cc2)c2ccccc2n1CC(O)c1ccco1 (stereo not drawn) ?
OUTPUT: N

* * *

- run.description: wild-type TIM10 yeast growth inhibition – luminescence, uHTS, counter-screen for tim10-1 yeast inhibitor project, primary screen (AID 463195)
- condition.description: S. cerevisiae TIM10 strain growth, BacTiter-Glo luminescence, 24 h; at 10 µM; hits give high values
Out of some 330,000 compounds screened, about 4,600 (1.4%) were called active. For the sample, actives were picked, then their nearest neighbours and some compounds at random.
I would appreciate it if you labelled entries 1 (yes) when inhibition is 50% or higher, otherwise 0 (no).

Please review the following examples before continuing.
{"smiles.record": "O=C(COC(=O)c1ccc([N+](=O)[O-])cc1Cl)NC(=O)c1ccccc1", "group": "0 (no)"}
{"smiles.record": "COC(=O)c1sccc1NC(=O)CSc1ccccc1NS(=O)(=O)c1cc(Cl)ccc1Cl", "group": "0 (no)"}
{"smiles.record": "CN(C(=O)CSc1nnc(N)s1)c1c(N)n(Cc2ccccc2)c(=O)[nH]c1=O", "group": "0 (no)"}
{"smiles.record": "O=C(NC(Nc1nc2ccc([N+](=O)[O-])cc2s1)(C(F)(F)F)C(F)(F)F)c1ccccc1", "group": "1 (yes)"}

Consider now this further molecule.
INPUT: Can `COC(=O)c1sccc1NS(=O)(=O)c1ccc(F)cc1F` be said to have inhibition at or above 50%?
OUTPUT: 0 (no)

* * *

- run.description: wild-type TIM10 yeast growth inhibition – luminescence, uHTS, counter-screen for tim10-1 yeast inhibitor project, primary screen (AID 463195)
- condition.description: S. cerevisiae TIM10 strain growth, BacTiter-Glo luminescence, 24 h; at 10 µM; hits give high values
In all, about 330,000 compounds went through this assay and about 4,600 (1.4%) were called active. This is one part of a sample in which actives are shown more often than they occur.
inhibition values for the compounds below.
Write the value in % as a bare number.

Known results for compounds:
{"compound": "COC(=O)Nc1ccc(S(=O)(=O)N2CCN(CCN3C(=O)C4C5C=CC(C5)C4C3=O)CC2)cc1 (centres undefined)", "inhibition (%)": -10.8}
{"compound": "N#Cc1cccc(Nc2c3c(nc4ccccc24)CCCC3)c1", "inhibition (%)": 22.5}

INPUT: Kindly indicate its recorded inhibition. Item: `Cc1cccc(NC(=S)NCCN(C2CCCCC2)C2CCCC2)c1`
OUTPUT: 11.8

INPUT: Kindly indicate its recorded inhibition. Item: O=C(NCc1ccccc1)C1CCCN(c2nc3ccsc3c(=O)s2)C1 (centres undefined)
OUTPUT: -2.48

INPUT: Kindly indicate its recorded inhibition. Item: `O=C(NC(=O)c1ccccc1N1CCCCC1)Nc1ccc(Br)cc1`
OUTPUT: 14.8

INPUT: Kindly indicate its recorded inhibition. Item: Cn1c(=O)c2c(SCC(=O)NCC3CCCO3)nc(CC(C)(C)C)nc2n(C)c1=O (centres undefined)
OUTPUT: 20.8

INPUT: Kindly indicate its recorded inhibition. Item: `O=C(/C=C/c1ccc(Cl)cc1Cl)c1cccnc1`
OUTPUT: 8.99

INPUT: Kindly indicate its recorded inhibition. Item: CCOCCCN1C(=O)C2C(C(=O)Nc3ccc(OCC)cc3)C3C=CC2(O3)C1C(=O)NC1CCCCC1 (centres undefined)
OUTPUT: 5.11

INPUT: Kindly indicate its recorded inhibition. Item: `CC(C)(C)c1ccc(CN2C(=O)c3ccccc3S2(=O)=O)cc1`
OUTPUT: 11

INPUT: Kindly indicate its recorded inhibition. Item: `CN(C)CCCN(C(=O)c1ccc(S(=O)(=O)N2CCCCCC2)cc1)c1nc2cc3c(cc2s1)OCCO3`
OUTPUT: 11.4

INPUT: Kindly indicate its recorded inhibition. Item: `O=C(COc1ccccc1)Nc1nonc1NC(=O)COc1ccccc1`
OUTPUT: 7.03

* * *

- run.description: wild-type TIM10 yeast growth inhibition – luminescence, uHTS, counter-screen for tim10-1 yeast inhibitor project, primary screen (AID 463195);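 also: wild-type TIM10 isogenic control strain grown at permissive 25 °C; 0% = DMSO yeast wells and 100% = minimal medium wells without yeast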
- condition.description: S. cerevisiae TIM10 strain growth, BacTiter-Glo luminescence, 24 h; at 10 µM; hits give high values
Out of some 330,000 compounds screened, about 4,600 (1.4%) were called active. The sample as a whole holds a higher share of actives than the screen did.
measured.property: inhibition (%)
Write the value in % as a bare number.

Known results for compounds:
{"compound": "COc1ccc(Cn2c(=O)cc(C)[nH]c2=S)cc1", "measure.unit": "%", "inhibition": 8.93}
{"compound": "C#CCOCCOCCOCCNc1nc(N2CCN(C(=O)[C@H](CCC(=O)O)n3cc(C(N)CO)nn3)CC2)nc(N2CCN(C(=O)[C@H](CCCCN)n3cc(C(N)CC(C)C)nn3)CC2)n1 (stereo not given in full)", "measure.unit": "%", "inhibition": -1.57}
{"compound": "O=C(COC(=O)C1CCCCC1)Nc1ccc([N+](=O)[O-])cc1", "measure.unit": "%", "inhibition": 30.8}
{"compound": "COc1ccc(Cn2c(-c3ccc(Cl)cc3)c[n+]3ccccc23)cc1", "measure.unit": "%", "inhibition": 45.6}
{"compound": "CC1(C)C(C=C(Cl)Cl)C1C(=O)N(Cc1ccc(Cl)cc1)C1CCS(=O)(=O)C1 (stereo not given)", "measure.unit": "%", "inhibition": 17.4}

INPUT: Kindly indicate its recorded inhibition. Item: `O=C(OCC(=O)N(CCc1ccccc1)Cc1ccccc1)c1ccccc1[N+](=O)[O-]`
OUTPUT: 6.8

INPUT: Kindly indicate its recorded inhibition. Item: `O=C(CSc1ncn[nH]1)N/N=C/c1ccc(F)cc1`
OUTPUT: -3.76

INPUT: Kindly indicate its recorded inhibition. Item: `CCOC(=O)C(=Cc1ccccc1OC)C(=O)OCC`
OUTPUT: 49

INPUT: Kindly indicate its recorded inhibition. Item: `COc1cccc(NC(=O)C(=O)c2cn(CC(=O)N3CCOCC3)c3ccccc23)c1`
OUTPUT: 11.5

INPUT: Kindly indicate its recorded inhibition. Item: `COc1ccc(OCC(=O)OCCN(C)C)cc1`
OUTPUT: 6.08

* * *

- run.description: wild-type TIM10 yeast growth inhibition – luminescence, uHTS, counter-screen for tim10-1 yeast inhibitor project, primary screen (AID 463195);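 also: wild-type TIM10 isogenic control strain grown at permissive 25 °C; 0% = DMSO yeast wells and 100% = minimal medium wells without yeast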
- condition.description: S. cerevisiae TIM10 strain growth, BacTiter-Glo luminescence, 24 h; at 10 µM; hits give high values
Out of some 330,000 compounds screened, about 4,600 (1.4%) were called active. This is one part of a sample in which actives are shown more often than they occur.
I would appreciate it if you labelled entries condition met when inhibition is 20% or higher, otherwise condition not met.

Please review the following examples before continuing.
{"compound": "CC(=O)Cc1nsc(NC(=O)c2ccc(COc3ccc(C)cc3)o2)n1", "group": "condition met"}
{"compound": "CCN(/N=C/c1ccccc1)c1cc(=O)n(C)c(=O)[nH]1", "group": "condition not met"}
{"compound": "CN(/N=C/c1ccccc1)C(=S)c1ccccc1", "group": "condition not met"}
{"compound": "Oc1ccc(/C=N/N(Cc2ccccc2)c2ccccc2)cc1", "group": "condition met"}
{"compound": "CC(C)CCNC(=O)C1CCC(CNc2c(N3CCC(C)CC3)c(=O)c2=O)CC1 (stereo not given)", "group": "condition not met"}

INPUT: Can COc1cccc(CNC(=O)CCC2CCCN(C(=O)c3ccoc3C)C2)c1 (stereo not given) be said to have inhibition at or above 20%?
OUTPUT: condition not met

INPUT: Can `O=C(Cc1ccccc1)NC(=S)Nc1ccc(N2CCCCC2)cc1` be said to have inhibition at or above 20%?
OUTPUT: condition met

INPUT: Can `Nn1cnnc1N/N=C/c1cc([N+](=O)[O-])c(Cl)cc1Cl` be said to have inhibition at or above 20%?
OUTPUT: condition not met

INPUT: Can `CCOC(=O)c1sc2nc(C)nc(Nc3ccc(OC)c(OC)c3)c2c1C` be said to have inhibition at or above 20%?
OUTPUT: condition not met

INPUT: Can CCc1ccc2c(c1)C1(NN=C(c3ccccc3)S1)C(=O)N2 (stereo not given) be said to have inhibition at or above 20%?
OUTPUT: condition met

INPUT: Can `CC(C)NC(=O)c1ccc(Cl)cc1Cl` be said to have inhibition at or above 20%?
OUTPUT: condition not met

* * *

- run.description: wild-type TIM10 yeast growth inhibition – luminescence, uHTS, counter-screen for tim10-1 yeast inhibitor project, primary screen (AID 463195);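 also: wild-type TIM10 isogenic control strain grown at permissive 25 °C; 0% = DMSO yeast wells and 100% = minimal medium wells without yeast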
- condition.description: S. cerevisiae TIM10 strain growth, BacTiter-Glo luminescence, 24 h; at 10 µM; hits give high values
Out of some 330,000 compounds screened, about 4,600 (1.4%) were called active. The entries come from a sample that favours actives as a whole.
measured.property: inhibition (%)
Write the value in % as a bare number.

{"molecule": "COc1ccc(S(=O)(=O)N(C)C[C@H]2Oc3c(NC(=O)Nc4ccc5c(c4)OCO5)cccc3C(=O)N([C@H](C)CO)C[C@@H]2C)cc1", "inhibition (%)": 1.19}
{"molecule": "COc1ccc(N2C(=O)NC(NS(=O)(=O)c3ccc(Cl)cc3)(C(F)(F)F)C2=O)cc1 (centres undefined)", "inhibition (%)": 5.54}
{"molecule": "COc1ccc(CN(C(=O)CSc2nnc(-c3ccc(OC)c(OC)c3)o2)c2ccc(F)cc2)cc1", "inhibition (%)": 40.5}
{"molecule": "Cn1c2c(c(=O)n(C)c1=O)C(c1cccc([N+](=O)[O-])c1)Nc1ccccc1O2 (centres undefined)", "inhibition (%)": -3.02}
{"molecule": "O=C(N/N=C/c1cccnc1)c1ccc(NC(=O)c2ccc(F)cc2)cc1", "inhibition (%)": -13.1}

INPUT: Kindly indicate its recorded inhibition. Item: `COc1ccc(-c2nnc(SCC(=O)NC3CCCCC3)o2)cc1OC`
OUTPUT: 3.73

INPUT: Kindly indicate its recorded inhibition. Item: `Cc1c(C)c(C)c(S(=O)(=O)NCCc2ccccn2)c(C)c1C`
OUTPUT: 7.03

INPUT: Kindly indicate its recorded inhibition. Item: `COc1cc(NC(=O)c2ccc3c(c2)OCO3)ccc1NC(=O)c1cccs1`
OUTPUT: 11

INPUT: Kindly indicate its recorded inhibition. Item: `CCOc1ccccc1/C=c1\sc2nc(-c3ccco3)nn2c1=O`
OUTPUT: 45
